Measured values drawn from ChEMBL document CHEMBL2406983 for this set.

Known inhibition of a selection of molecules
- measured target: 5-hydroxytryptamine receptor 6 (Homo sapiens, UniProt P50406)
- Sequence (P50406 whole entry): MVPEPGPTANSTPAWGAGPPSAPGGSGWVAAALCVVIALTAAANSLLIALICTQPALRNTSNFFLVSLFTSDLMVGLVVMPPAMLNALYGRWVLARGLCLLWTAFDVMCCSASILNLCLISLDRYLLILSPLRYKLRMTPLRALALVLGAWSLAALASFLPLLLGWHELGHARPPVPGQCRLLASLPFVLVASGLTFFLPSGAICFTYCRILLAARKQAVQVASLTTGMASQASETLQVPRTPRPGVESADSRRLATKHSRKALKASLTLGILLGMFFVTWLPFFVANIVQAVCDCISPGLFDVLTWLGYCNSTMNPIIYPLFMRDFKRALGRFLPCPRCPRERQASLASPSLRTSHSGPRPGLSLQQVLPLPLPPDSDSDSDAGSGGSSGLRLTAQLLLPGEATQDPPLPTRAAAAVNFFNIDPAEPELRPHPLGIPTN
- assay explanation: Antagonist activity at human 5-HT6 receptor expressed in human HeLa cells assessed as inhibition of 5-HT-induced cAMP accumulation at 10 uM pretreated for 10 mins before 5-HT addition measured after 30 mins
- Assay type: functional, cell-based
Enter your answer as a number in %; do not include the unit.

Example molecules with recorded inhibition:
structure smiles string	measured target	inhibition, %
O=C1c2[nH]nc(NS(=O)(=O)c3cccc4ccccc34)c2CCN1C1CCNCC1	5-hydroxytryptamine receptor 6 (Homo sapiens, UniProt P50406)	89.5
Cc1ccc(F)c(S(=O)(=O)Nc2n[nH]c3c2CCN(CC2CCNCC2)C3=O)c1	5-hydroxytryptamine receptor 6 (Homo sapiens, UniProt P50406)	30.6
Cc1ccc(N2CCc3c(NS(=O)(=O)c4ccccc4F)n[nH]c3C2=O)cc1	5-hydroxytryptamine receptor 6 (Homo sapiens, UniProt P50406)	29.6
Cc1ccc(N2CCc3c(NS(=O)(=O)c4ccccc4)n[nH]c3C2=O)cc1	5-hydroxytryptamine receptor 6 (Homo sapiens, UniProt P50406)	23.5
COc1ccc(N2CCc3c(NS(=O)(=O)c4cccc(OC)c4)n[nH]c3C2=O)cc1	5-hydroxytryptamine receptor 6 (Homo sapiens, UniProt P50406)	63.3
COc1ccc(S(=O)(=O)Nc2n[nH]c3c2CCN(CC2CCNCC2)C3=O)cc1	5-hydroxytryptamine receptor 6 (Homo sapiens, UniProt P50406)	15.1
COc1ccc(NS(=O)(=O)c2ccc(I)cc2)cc1N1CCN(C)CC1	5-hydroxytryptamine receptor 6 (Homo sapiens, UniProt P50406)	97.7
COc1ccc(N2CCc3c(NS(=O)(=O)c4ccc(F)cc4)n[nH]c3C2=O)cc1	5-hydroxytryptamine receptor 6 (Homo sapiens, UniProt P50406)	30.6
O=C1c2[nH]nc(NS(=O)(=O)c3ccc4ccccc4c3)c2CCN1CC1CCNCC1	5-hydroxytryptamine receptor 6 (Homo sapiens, UniProt P50406)	40.9
Cc1c(Cl)cccc1S(=O)(=O)Nc1n[nH]c2c1CCN(CC1CCNCC1)C2=O	5-hydroxytryptamine receptor 6 (Homo sapiens, UniProt P50406)	51.7

**Query** Specify measured inhibition for COc1cccc(S(=O)(=O)Nc2n[nH]c3c2CCN(c2ccc(C)cc2)C3=O)c1 .
**Result** 63.2

**Query** Give the value of inhibition reported for the following: O=C1c2[nH]nc(NS(=O)(=O)c3cccc4ccccc34)c2CCN1CC1CCNCC1
**Result** 94.1

**Query** Look up inhibition of Cc1ccc(N2CCc3c(NS(=O)(=O)c4cccc(C(F)(F)F)c4)n[nH]c3C2=O)cc1 and report it.
**Result** 69

**Query** Give the measured inhibition for O=C1c2[nH]nc(NS(=O)(=O)c3cccc(Cl)c3)c2CCN1CC1CCNCC1
**Result** 31

**Query** Please look at this molecule and report its inhibition: Cc1ccc(N2CCc3c(NS(=O)(=O)c4cccc(F)c4)n[nH]c3C2=O)cc1
**Result** 18.1

**Query** Tell me its inhibition given Cc1ccc(N2CCc3c(NS(=O)(=O)c4cccc(Cl)c4)n[nH]c3C2=O)cc1 as the entry.
**Result** 5.4

**Query** Identify the reported inhibition for the following entry. COc1ccc(N2CCc3c(NS(=O)(=O)c4cccc(F)c4)n[nH]c3C2=O)cc1
**Result** 95.2

**Query** Give inhibition for Cc1ccc(N2CCc3c(NS(=O)(=O)c4cccc(Cl)c4C)n[nH]c3C2=O)cc1
**Result** 92.2

**Query** State, in one line, measured inhibition of COc1ccc(OC)c(S(=O)(=O)Nc2n[nH]c3c2CCN(c2ccc(C)cc2)C3=O)c1
**Result** 3.8

**Query** For the molecule Cc1ccc(N2CCc3c(NS(=O)(=O)c4cc(C)ccc4F)n[nH]c3C2=O)cc1 , give its reported inhibition.
**Result** 25.9
